Target: T1, P2SHb
T1 chain: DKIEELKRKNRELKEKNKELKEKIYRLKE
Experiment: two-hybrid library CCNG1;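 also: natural log of median RNA to DNA barcode read ratio; higher means stronger binding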
MEASURED_PARAMETER: interaction score
The answer should be a number; do not append a unit.

Examples with answers:
BINDER: DKNEELKRENEELERKIERLKEKIRYLKE [P10SHb]
MEASURED_PARAMETER: interaction score
REPORTED_VALUE: 0.782
//
BINDER: DKIEELKRKNRELKEKNKELKEKIYRLKE [P2SHb]
MEASURED_PARAMETER: interaction score
REPORTED_VALUE: -0.669
//
BINDER: DKNRELKEKIERLKEKIRELKEENRYLEE [P12SHb]
MEASURED_PARAMETER: interaction score
REPORTED_VALUE: -1.12
//
BINDER: DENEKLEREIRELEREIEKLEKKNRYLKE [P11SHb]
MEASURED_PARAMETER: interaction score
REPORTED_VALUE: 0.79

If you can, please state the reported interaction score value of DEIERLERENEKLERENERLEREIRWLEE [P1SHb] . 1.75

Where these numbers come from: paper PMC10397247
